# Tested on: Saccharomyces cerevisiae
# test summary: Antimicrobial activity against Saccharomyces cerevisiae YUG37 transformed with plasmid carrying cyp51B gene with doxycycline-regulatable promoter by broth dilution method in presence of doxycycline
# Assay type: functional
# MIC listing for each entry below
State just the number; it will be interpreted in µg/mL.

1. CC[C@@H]([C@H](C)O)n1ncn(-c2ccc(N3CCN(c4ccc(OC[C@@H]5CO[C@@](Cn6cncn6)(c6ccc(F)cc6F)C5)cc4)CC3)cc2)c1=O = 0.063

# next molecule below
If you can, please state the reported MIC value of CCC(C)n1ncn(-c2ccc(N3CCN(c4ccc(OCC5COC(Cn6cncn6)(c6ccc(Cl)cc6Cl)O5)cc4)CC3)cc2)c1=O (stereo not given) . 0.125

====

# System: Saccharomyces cerevisiae
# test summary: Antimicrobial activity against Saccharomyces cerevisiae YUG37 transformed with plasmid carrying cyp51B gene with doxycycline-regulatable promoter by broth dilution method in presence of doxycycline
# Assay type: functional
measurement name: MIC (µg/mL)
State just the number; it will be interpreted in µg/mL.

// known answers, use as guide
1) Clc1ccccc1C(c1ccccc1)(c1ccccc1)n1ccnc1 = 0.016
2) C[C@@H](c1ncncc1F)[C@](O)(Cn1cncn1)c1ccc(F)cc1F = 0.004

# next compound below
If you can, please state the reported MIC value of OC(Cn1cncn1)(Cn1cncn1)c1ccc(F)cc1F . 0.5
